Source: patent US9371331B2

molecular target: EZH2 (rPRC2) (Homo sapiens); assay: EZH2 assay: rPRC2, biotinylated oligonucleosomes, 3H SAM methyl transfer (FlashPlate scintillation); type: biochemical; settings: wild-type EZH2 (rPRC2), biotinylated oligonucleosome substrate; read-out: EZH2 IC50
Sequence (Q15910 whole entry): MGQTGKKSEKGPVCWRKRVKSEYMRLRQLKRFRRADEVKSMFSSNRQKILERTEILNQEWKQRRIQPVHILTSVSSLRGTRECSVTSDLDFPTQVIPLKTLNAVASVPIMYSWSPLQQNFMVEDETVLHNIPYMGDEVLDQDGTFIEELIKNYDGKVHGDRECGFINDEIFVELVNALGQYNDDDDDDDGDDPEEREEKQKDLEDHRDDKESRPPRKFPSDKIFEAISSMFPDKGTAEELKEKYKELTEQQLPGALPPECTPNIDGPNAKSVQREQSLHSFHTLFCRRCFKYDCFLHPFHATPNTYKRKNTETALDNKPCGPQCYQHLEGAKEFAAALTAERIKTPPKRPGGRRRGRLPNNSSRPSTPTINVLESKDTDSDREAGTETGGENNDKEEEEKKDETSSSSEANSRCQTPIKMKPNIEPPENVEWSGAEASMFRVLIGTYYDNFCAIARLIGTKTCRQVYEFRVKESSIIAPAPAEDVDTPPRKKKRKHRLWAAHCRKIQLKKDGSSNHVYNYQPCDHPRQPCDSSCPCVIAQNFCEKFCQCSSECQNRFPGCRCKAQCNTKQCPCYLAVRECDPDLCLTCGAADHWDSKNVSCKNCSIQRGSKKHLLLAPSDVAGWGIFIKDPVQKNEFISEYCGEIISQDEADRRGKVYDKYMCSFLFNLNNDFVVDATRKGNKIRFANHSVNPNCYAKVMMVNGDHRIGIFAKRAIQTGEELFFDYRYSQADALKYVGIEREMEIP
Sequence (O75530 whole entry partner): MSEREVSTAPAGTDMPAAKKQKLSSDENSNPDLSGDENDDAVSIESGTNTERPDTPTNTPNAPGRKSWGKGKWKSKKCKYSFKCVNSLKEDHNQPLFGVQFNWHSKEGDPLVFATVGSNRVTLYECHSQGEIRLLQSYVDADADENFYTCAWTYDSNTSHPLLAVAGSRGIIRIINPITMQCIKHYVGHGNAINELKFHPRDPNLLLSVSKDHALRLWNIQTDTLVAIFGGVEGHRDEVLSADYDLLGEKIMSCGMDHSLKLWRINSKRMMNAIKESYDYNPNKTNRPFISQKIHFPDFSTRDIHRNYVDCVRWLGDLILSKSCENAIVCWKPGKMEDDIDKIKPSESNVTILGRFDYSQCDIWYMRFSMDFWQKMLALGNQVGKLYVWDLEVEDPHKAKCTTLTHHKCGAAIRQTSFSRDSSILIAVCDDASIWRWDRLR
Sequence (Q15022 whole entry partner): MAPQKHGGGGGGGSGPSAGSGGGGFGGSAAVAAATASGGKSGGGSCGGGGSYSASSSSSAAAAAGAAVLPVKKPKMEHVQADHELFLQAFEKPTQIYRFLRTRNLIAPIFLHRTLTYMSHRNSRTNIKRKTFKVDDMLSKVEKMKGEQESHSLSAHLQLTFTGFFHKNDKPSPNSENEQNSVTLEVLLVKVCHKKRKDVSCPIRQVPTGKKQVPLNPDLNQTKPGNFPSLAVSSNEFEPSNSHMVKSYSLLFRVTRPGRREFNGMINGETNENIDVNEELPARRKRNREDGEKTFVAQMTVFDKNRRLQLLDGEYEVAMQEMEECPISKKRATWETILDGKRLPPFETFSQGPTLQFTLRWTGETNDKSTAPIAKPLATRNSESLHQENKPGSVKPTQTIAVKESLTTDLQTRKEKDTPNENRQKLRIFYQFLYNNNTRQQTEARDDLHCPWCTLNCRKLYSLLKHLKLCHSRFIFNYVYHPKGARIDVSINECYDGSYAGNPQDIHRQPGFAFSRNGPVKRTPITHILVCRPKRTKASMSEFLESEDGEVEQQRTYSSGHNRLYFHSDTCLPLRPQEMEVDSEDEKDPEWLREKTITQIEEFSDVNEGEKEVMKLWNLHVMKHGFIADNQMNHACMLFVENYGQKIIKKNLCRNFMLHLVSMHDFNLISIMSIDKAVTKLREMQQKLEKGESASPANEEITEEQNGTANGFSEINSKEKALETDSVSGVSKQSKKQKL
pIC50: −log10 of the molar value.
parameter: pIC50

{"columns": ["compound", "measuredResult"],
 "data": [
  ["Cc1cc(C)c(CNC(=O)c2c(C)n(C(C)CS(C)(=O)=O)c3ncccc23)c(=O)[nH]1 (racemic)", "> 7.00"],
  ["Cc1ccc(C)c(-n2c(C)c(C(=O)NCc3c(C)cc(C)[nH]c3=O)c3ccccc32)c1", "> 7.00"],
  ["Cc1cc(C)c(CNC(=O)c2cnn(-c3ccccc3)c2C)c(=O)[nH]1", "5.00 to 6.00"],
  ["COc1cc(C)[nH]c(=O)c1CNC(=O)c1c(C)n(C(C)CC(N)=O)c2ncccc12 (stereo not shown)", "6.00 to 7.00"]
]}
